These data points were gathered from paper PMC5504357.

- Tested on: Candida haemulonii
- measurement_description: Planktonic growth, broth microdilution (CLSI M27-A3), MIC
- Assay type: cell-based
- experimental_conditions: isolate LIP Ch12; planktonic, 48 h, 37°C
- Description: Three clinical isolates of each species that form the C. haemulonii complex were used in this study: C. haemulonii (LIPCh4 from finger nail, LIPCh7 from toe nail, and LIPCh12 from blood), C. duobushaemulonii (LIPCh1 from finger nail, LIPCh6 from toe nail, and LIPCh8 from blood) and C. haemulonii var. vulnera (LIPCh5 from toe nail, LIPCh9 from urine, and LIPCh11 from blood) (Ramos et al., [2015]). […]
measured_attribute: MIC (mg/L)
# output: bare number, implied unit mg/L

O=[N+]([O-])[O-].[Ag+] [AgNO3, reference compound] = 1
O.O.O.O.O=C1C(=O)c2cccnc2-c2ncccc21.O=C1C(=O)c2cccnc2-c2ncccc21.O=C1C(=O)c2cccnc2-c2ncccc21.[Cu+2].[O-][Cl+3]([O-])([O-])[O-].[O-][Cl+3]([O-])([O-])[O-] [compound 6, [Cu(phendione)3](ClO4)2.4H2O] = 16
CCO.O.O.O.O.O.O.O=C([O-])c1cccc(C(=O)[O-])c1.[Cu+2].c1cnc2c(c1)ccc1cccnc12.c1cnc2c(c1)ccc1cccnc12 [compound 3, [Cu(isoph)(phen)2].6H2O.EtOH] = 16
O.O.O=C([O-])c1ccccc1C(=O)[O-].[Mn+2].c1cnc2c(c1)ccc1cccnc12 [compound 8, [Mn(ph)(phen)(H2O)2]] = 4

// switching to the query molecule
*Q* Kindly indicate its recorded MIC. Item: O.O.O.O.O.O=C([O-])c1ccccc1C(=O)[O-].[Mn+2].c1cnc2c(c1)ccc1cccnc12.c1cnc2c(c1)ccc1cccnc12 [compound 9, [Mn(ph)(phen)2(H2O)].4H2O]
*A* 2
